tested on: Escherichia coli TOP10; experiment: shrunken log2 fold change of peptide-encoding DNA abundance (4.5 h post-induction vs induction); higher = less antimicrobial activity (less host growth inhibition); conditions: time post-induction: 4.5 h; library: site-saturation at positions 5, 18, 19, 20;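 note: peptides expressed intracellularly from a pBAD plasmid library in pooled LB shake-flask culture, induced with 0.3% L-arabinose, DNA abundance read by NGS, three biological replicates, DESeq2 with apeglm shrinkage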
true means recorded shrunken log2 fold change is 0.001 or above; false means it is below 0.001.

INPUT: Threshold query (shrunken log2 fold change >= 0.001) on RRIRPRPPRLPRPRPRPYEDPRP
OUTPUT: false

INPUT: Threshold query (shrunken log2 fold change >= 0.001) on RRIRYRPPRLPRPRPRPRPAPRP
OUTPUT: true

INPUT: Threshold query (shrunken log2 fold change >= 0.001) on RRIRVRPPRLPRPRPRPVQEPRP
OUTPUT: false

INPUT: Threshold query (shrunken log2 fold change >= 0.001) on RRIRTRPPRLPRPRPRPRVKPRP
OUTPUT: false

INPUT: Threshold query (shrunken log2 fold change >= 0.001) on RRIRFRPPRLPRPRPRPISDPRP
OUTPUT: true

INPUT: Threshold query (shrunken log2 fold change >= 0.001) on RRIRARPPRLPRPRPRPGGFPRP
OUTPUT: true

INPUT: Threshold query (shrunken log2 fold change >= 0.001) on RRIRHRPPRLPRPRPRPMHRPRP
OUTPUT: true

INPUT: Threshold query (shrunken log2 fold change >= 0.001) on RRIRHRPPRLPRPRPRPQQRPRP
OUTPUT: true

INPUT: Threshold query (shrunken log2 fold change >= 0.001) on RRIRCRPPRLPRPRPRPATVPRP
OUTPUT: true

INPUT: Threshold query (shrunken log2 fold change >= 0.001) on RRIRVRPPRLPRPRPRPHCPPRP
OUTPUT: false

INPUT: Threshold query (shrunken log2 fold change >= 0.001) on RRIRNRPPRLPRPRPRPLWKPRP
OUTPUT: false

INPUT: Threshold query (shrunken log2 fold change >= 0.001) on RRIRPRPPRLPRPRPRPPFHPRP
OUTPUT: true

INPUT: Threshold query (shrunken log2 fold change >= 0.001) on RRIRMRPPRLPRPRPRPCKVPRP
OUTPUT: false

INPUT: Threshold query (shrunken log2 fold change >= 0.001) on RRIRLRPPRLPRPRPRPCATPRP
OUTPUT: true

INPUT: Threshold query (shrunken log2 fold change >= 0.001) on RRIRVRPPRLPRPRPRPWRSPRP
OUTPUT: false
